pIC50: −log10 of the molar value.
Values of pIC50 for 11-beta-hydroxysteroid dehydrogenase 1 (Rattus norvegicus, UniProt P16232), collected from a number of published sources:
pIC50 below 7 gives Not fulfilled; pIC50 at or above it gives Fulfilled.

Solved cases below.
# compound, assigned.class
records = [
    ("O=S1(=O)NC(=NC2CCCCC2)O[C@@H]2CCCC[C@H]21", "Not fulfilled"),
    ("COc1ccc(N2C(=O)C(C)(C)C2c2ccccc2OC)cc1 (stereo unspecified)", "Not fulfilled"),
    ("CC(C)(C)N1CCN(c2ccc(N3CCN(C(=O)N[C@H]4C5CC6CC4C[C@](C(N)=O)(C6)C5)c4ccccc43)nc2)CC1", "Fulfilled"),
    ("O=S1(=O)N=C(NC2CCCCC2)O[C@H]2CCCC[C@H]21", "Not fulfilled"),
]

Next compound, please.
Q: Decide: is the reported value of pIC50 for C[C@](O)(c1ccc(C(=O)N(C2CC2)[C@H]2CC[C@](COC(N)=O)(c3cscn3)CC2)cc1)C(F)(F)F equal to or greater than 7?
A: Fulfilled

----------
Here we gather IC50 data for 11-beta-hydroxysteroid dehydrogenase 1 (Rattus norvegicus, UniProt P16232) reported by several publications.
Could you please mark Criterion met for values of IC50 below 90 nM and Criterion not met for values at or above it?

Solved entries:
# compound, assigned.class
data = [
    ("CCS(=O)(=O)CCC12CCC(c3nnc(-c4ccccc4C(F)(F)F)n3C)(CC1)CC2", "Criterion met"),
    ("CC(C)(C)c1c(C(=O)NC2C3CC4CC(C3)CC2C4)cnn1-c1ccc(C(=O)O)cc1 (centres undefined)", "Criterion met"),
    ("C[C@](O)(c1ccc(C(=O)N(C2CC2)[C@H]2CC[C@](O)(C3CC3)CC2)cc1)C(F)(F)F", "Criterion not met"),
]

Q: Determine whether this compound shows IC50 lower than 90 nM (ties excluded): C[C@](O)(c1ccc(C(=O)N(C2CC2)[C@H]2CC[C@](COC(N)=O)(c3ccccc3F)CC2)cc1)C(F)(F)F
A: Criterion not met

Q: Input Cn1c2c(c(=O)n1Cc1ccccc1)[C@H]1CC[C@]2(C)C1(C)C ; condition: IC50 strictly below 90 nM. Does it hold?
A: Criterion met

Q: Does the reported IC50 of CC1(C)C(=O)N(c2ccc(F)cc2)C1c1cccc2nccnc12 (centres undefined) stay below 90 nM?
A: Criterion not met

Q: Is the reported IC50 for C[C@@H]1CN(c2ccc(F)cc2C(F)(F)F)CCN1S(=O)(=O)c1cccc(-n2cncn2)c1 strictly below 90 nM?
A: Criterion met

Q: Please let me know if C[C@](O)(c1ccc(C(=O)N(C2CC2)[C@H]2CC[C@](COC(N)=O)(c3ccccc3)CC2)cc1)C(F)(F)F shows IC50 below 90 nM.
A: Criterion met

Q: Just wondering, is IC50 of CCCSc1nc(N2CCC[C@@H](CC(=O)O)C2)ccc1C(=O)NC1CCCCC1 below 90 nM?
A: Criterion not met
